assay: Pharmacokinetic measurement in mouse, single sc dose 30 nmol/kg, plasma ELISA; details: single sc dose 30 nmol/kg
endpoint_name: Tmax (h)
Number in h, nothing else.

Task: Which Tmax reading was recorded for the molecule MLC009: fusion polypeptide SEQ ID NO: 256 conjugated with Moiety A at 15K of Linker (conjugate, Moiety A conjugated at linker K15) HGEGTFTSDVSSYLEEQAAREFIAWLVRGGGGQEPGQEPGQEPGQKPGQEPGQEPGQEPGQEPGAQPGAQPARQGDHCPLGPGRCCRLHTVRASLEDLGWADWVLSPREVQVTMCIGACPSQFRAANLHAQIKTSLHRLRPDTVPAPCCVPASYNPMVLIQRTDTGVSLQTYDDLLARDCHCI ?
Output: 3.3

Provenance of the data: patent US11453711B2
